- Assayed system: T1, human ROR2 expressed on the cell surface (human, UniProt Q01974 34-943)
- T1 construct: Endogenous ROR2 of human tumour cell lines; also called cell surface ROR2; ROR2 on tumour cell lines
- T1 sequence (Q01974 34-943 limits assumed): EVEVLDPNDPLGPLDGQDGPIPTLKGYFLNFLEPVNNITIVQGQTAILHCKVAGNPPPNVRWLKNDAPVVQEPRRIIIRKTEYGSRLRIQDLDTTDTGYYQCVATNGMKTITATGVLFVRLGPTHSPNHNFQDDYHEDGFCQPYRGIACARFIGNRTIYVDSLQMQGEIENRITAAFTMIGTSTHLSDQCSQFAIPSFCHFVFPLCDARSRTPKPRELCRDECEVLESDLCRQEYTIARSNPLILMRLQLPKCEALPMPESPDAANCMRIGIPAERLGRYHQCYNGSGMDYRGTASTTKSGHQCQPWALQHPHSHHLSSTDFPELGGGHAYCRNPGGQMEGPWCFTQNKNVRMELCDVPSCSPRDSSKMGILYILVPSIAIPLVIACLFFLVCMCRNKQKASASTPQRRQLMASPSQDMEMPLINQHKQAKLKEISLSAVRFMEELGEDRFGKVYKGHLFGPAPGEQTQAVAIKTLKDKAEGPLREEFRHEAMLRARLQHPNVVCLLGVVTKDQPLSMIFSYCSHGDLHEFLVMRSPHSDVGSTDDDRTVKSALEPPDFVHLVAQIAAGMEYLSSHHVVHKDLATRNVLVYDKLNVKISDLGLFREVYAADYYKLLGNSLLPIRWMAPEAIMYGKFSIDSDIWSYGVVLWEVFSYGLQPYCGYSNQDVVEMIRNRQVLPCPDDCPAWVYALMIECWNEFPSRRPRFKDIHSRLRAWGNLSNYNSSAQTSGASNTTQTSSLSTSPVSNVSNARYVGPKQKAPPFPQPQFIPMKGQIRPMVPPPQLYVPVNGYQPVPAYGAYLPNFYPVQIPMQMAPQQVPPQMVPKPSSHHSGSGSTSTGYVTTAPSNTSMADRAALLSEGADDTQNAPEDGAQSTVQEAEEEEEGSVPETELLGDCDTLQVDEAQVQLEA
- Assay method text: flow cytometry, SKNSH cells (neuroblastoma)
- Design: unit not given here
- Procedure: Human tumour cell lines were authenticated using short tandem repeat (STR) analysis. They were cultured in RPMI1640 (Cellgro) supplemented with 10% fetal bovine serum (FBS, Life Technologies) at 37° C. in a 5% CO₂ humidified incubator. They were harvested, washed in PBS and reacted with ROR2-IgG at 1 ug/10⁶ tumour cells on ice for an hour. #901-IgG was used as a negative control at the same dose. […] Staining was analyzed on a FACSCalibur (BD Biosciences). […]
Recorded endpoint: binding intensity
One number for each entry.

## Input For the binder ROR2-240 full length human IgG1 antibody (antibody, V domains shown, also called clone #240 IgG1) VH: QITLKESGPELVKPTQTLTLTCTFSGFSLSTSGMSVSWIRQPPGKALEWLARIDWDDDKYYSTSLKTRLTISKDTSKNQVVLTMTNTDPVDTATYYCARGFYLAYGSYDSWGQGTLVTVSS VL: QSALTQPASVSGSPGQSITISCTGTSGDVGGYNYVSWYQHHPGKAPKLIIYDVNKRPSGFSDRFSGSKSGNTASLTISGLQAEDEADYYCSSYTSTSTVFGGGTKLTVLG , what binding intensity is on record?
## Output 113

Data provenance: patent US20180127503A1
